assay: Population pharmacokinetic modeling and covariate analysis; type: in vivo, human; details: both, human, plasma, oral, θCL, erlotinib clearance, Base model (n=26), Estimate (CV %)

cpd smiles	clearance
C#Cc1cccc(Nc2ncnc3cc(OCCOC)c(OCCOC)cc23)c1	104 mL/min

* * *

experiment: Population pharmacokinetic modeling and covariate analysis; assay type: in vivo, human; conditions: both, human, plasma, oral, θCL, erlotinib clearance, Base model (n=26), Bootstrap median (95% CI)

compound	clearance (mL/min)
C#Cc1cccc(Nc2ncnc3cc(OCCOC)c(OCCOC)cc23)c1 [erlotinib]	104

* * *

assay: Population pharmacokinetic modeling and covariate analysis; type: in vivo, human; conditions: both, human, plasma, oral, θCL, erlotinib clearance, Covariate model (LBM, n=26), Bootstrap median (95% CI)

cpd smiles	clearance (mL/min)
C#Cc1cccc(Nc2ncnc3cc(OCCOC)c(OCCOC)cc23)c1	106

* * *

experiment: Population pharmacokinetic modeling and covariate analysis; format: in vivo, human; settings: both, human, plasma, oral, θV1, volume of distribution, Base model (n=26), Estimate (CV %)

compound	Vd, L
C#Cc1cccc(Nc2ncnc3cc(OCCOC)c(OCCOC)cc23)c1 [erlotinib]	284

* * *

assay: clinical; settings: human, in vivo, AUC0–24
assay metric: AUC(0-t) (ng·h/mL)

cpd smiles	assay metric	readout value
C#Cc1cccc(Nc2ncnc3cc(OCCOC)c(OCCOC)cc23)c1	AUC(0-t)	12200

* * *

experiment: Population pharmacokinetic modeling and covariate analysis; type: in vivo, human; conditions: both, human, plasma, oral, θV1, volume of distribution, Covariate model (LBM, n=26), Estimate (CV %)

cpd smiles	Vd [L]
C#Cc1cccc(Nc2ncnc3cc(OCCOC)c(OCCOC)cc23)c1	283
